Values compiled from patent US4201783A.

Experiment: in vivo
Details: mouse, po
Counter-ions that a name gives are not always drawn.
measured_attribute: LD50 (mg/kg)
Provide the reading as a plain figure in mg/kg.

molecule: CN(C)CCC=C1c2ccccc2CCc2ccccc21 [Amitriphthyline, hydrochloride, reference compound]
readout_number: 150

Now let's try a different one.
Input line: Item COC(=O)N1CCC23NC(=O)CC(c4cc(Cl)ccc4O2)C3C1 (stereo not drawn) [Example 28] has what recorded LD50?
Output line: 1100

* * *

System: ptosis with reserpine
Test: inhibition of reserpine ptosis in Swiss mice (B. Rubin et al.)
Type: in vivo
Conditions: Mus musculus, po, simultaneously with reserpine 5 mg/kg intraperitoneally, ptosis measured at 1, 1.5 and 2 hours, read-out: ED50 (dose inhibiting reserpine ptosis by an average of 50%)
Where a name gives a salt, the structure may show the parent alone.
This section presents molecules with their documented log10 of ED50 values.
Hello, just confirming the data are log10 of ED50 with units of mg/kg.

Please review the following examples before continuing.
molecule: CN1CCC23NC(=O)CC(c4cc(Br)ccc4O2)C3C1 (stereo not drawn)
readout_number: -1.00
//
molecule: CCOC(=O)N1CCC23NC(=O)CC(c4cc(Cl)ccc4O2)C3C1 (stereo not drawn)
readout_number: -0.43
//
molecule: CN1CCC23NC(=O)CC(c4cc([N+](=O)[O-])ccc4O2)C3C1 (stereo not drawn)
readout_number: -0.22

Input line: What measured log10 of ED50 goes with CN(C)CCC=C1c2ccccc2CCc2ccccc21 [Amitriphthyline, hydrochloride, reference compound] ?
Output line: 1.00

Input line: Given the molecule CN1CCC23NC(=O)CC(c4cc(F)ccc4O2)C3C1 (stereo not drawn) , what is its reported log10 of ED50?
Output line: 0.00

Input line: Entry under review: CN1CCC23Oc4ccc(Cl)cc4C(CC(=O)N2C)C3C1 (stereo not drawn) . Reported log10 of ED50?
Output line: -0.15

Input line: Given CN1CCC23NC(=O)CC(c4c(ccc5ccccc45)O2)C3C1 (stereo not drawn) , state its recorded log10 of ED50.
Output line: 0.26

Input line: Return reported log10 of ED50; argument: CC(=O)N1CCC23NC(=O)CC(c4ccccc4O2)C3C1 (stereo not drawn)
Output line: 0.70

Input line: Quick one: log10 of ED50 for COc1ccc2c(c1)C1CC(=O)NC3(CCN(C)CC13)O2 (single isomer, unassigned) ?
Output line: -0.17

Input line: Please look up its log10 of ED50: Cc1ccc2c(c1)C1CC(=O)NC3(CCN(C)CC13)O2 (stereo not drawn)
Output line: 0.54

Input line: Look up log10 of ED50 for this molecule: CN(C)CCCN1c2ccccc2CCc2ccccc21 [Imipramine, hydrochloride, reference compound]
Output line: 0.46

Input line: Looking for the measured log10 of ED50 of COC(=O)N1CCC23NC(=O)CC(c4cc(Cl)ccc4O2)C3C1 (stereo not drawn) , can you help?
Output line: -0.60
